Tested on: Staphylococcus epidermidis 270
MEASUREMENT LABEL: MIC

1) CO[C@]1(C)C[C@H](O[C@H]2[C@H](C)[C@@H](O[C@@H]3O[C@H](C)C[C@H](N(C)C)[C@H]3O)[C@@](C)(CC(C)=O)OC(=O)[C@H](C)[C@H](C(C)=O)OC(=O)[C@@H]2C)O[C@@H](C)[C@@H]1O | > 128 µg/mL
2) CC[C@@H](O)[C@H](C)[C@@H]1OC(=O)[C@H](C)[C@@H](O[C@H]2C[C@@](C)(OC)[C@@H](O)[C@H](C)O2)[C@H](C)[C@@H](O[C@@H]2O[C@H](C)C[C@H](N(C)C)[C@H]2O)[C@@]2(C)CC(C)=C(O2)[C@@H]1C | 64 µg/mL
3) CC[C@@H](O)[C@@](C)(O)[C@@H]1OC(=O)[C@H](C)[C@@H](O[C@H]2C[C@@](C)(OC)[C@@H](O)[C@H](C)O2)[C@H](C)[C@@H](O[C@@H]2O[C@H](C)C[C@H](N(C)C)[C@H]2O)[C@@]2(C)CC(C)=C(O2)[C@@H]1C | > 128 µg/mL
4) CC[C@@H](O)[C@@](C)(O)[C@@H]1OC(=O)[C@H](C)[C@@H](O[C@H]2C[C@@](C)(OC)[C@@H](O)[C@H](C)O2)[C@H](C)[C@@H](O[C@@H]2O[C@H](C)C[C@H](N(C)C)[C@H]2O)[C@@]2(C)CC(C)(O)C(O)(O2)[C@@H]1C (some centres unmarked) | > 128 µg/mL
5) CO[C@]1(C)C[C@H](O[C@H]2[C@H](C)[C@@H](O[C@@H]3O[C@H](C)C[C@H](N(C)C)[C@H]3O)[C@@]3(C)CC(C)=C(O3)[C@H](C)[C@H](C(C)=O)OC(=O)[C@@H]2C)O[C@@H](C)[C@@H]1O | > 128 µg/mL
